- System: SK-MEL-2
- procedure summary: NCI tumour cell line growth inhibition, 48 h
Active and inactive are the calls of the source. Rule as the data show it: active = GI50 up to about 1.1 µM and inactive = higher.
Can you answer with just one of these options? class 1 = active, class 0 = inactive

QUERY: Recorded call for CCCCCCNCCCNc1c2ccccc2nc2cccc([N+](=O)[O-])c12 ?
RESULT: class 1

QUERY: Recorded call for CCOC(=O)CCCN ?
RESULT: class 0

QUERY: Recorded call for CCOC(=O)C(C)c1cc(C2(C)OCCO2)c(C)o1 (configuration not stated) ?
RESULT: class 0

QUERY: Recorded call for Nc1ccc2c(=O)cc(-c3ccc(Br)s3)[nH]c2n1 ?
RESULT: class 0

QUERY: Recorded call for COC(=O)c1c(C)cccc1C1CN=NC12Cc1cccc(C)c1C2=O (configuration not stated) ?
RESULT: class 0

QUERY: Recorded call for CN1COCN/C1=N/C#N ?
RESULT: class 0

QUERY: Recorded call for CNC(=O)N(C1=NCC(C)S1)c1ccc(C)c(C)c1 (configuration not stated) ?
RESULT: class 0

QUERY: Recorded call for CC(=O)/C(=C/N1CC(=O)NC1=S)C(=O)Nc1ccccc1C ?
RESULT: class 0

QUERY: Recorded call for COc1cc(S(=O)(=O)Nc2nc(-c3ccc(N)cc3)cs2)ccc1Cl ?
RESULT: class 0

QUERY: Recorded call for CC1OC(OC2C(O[C@H]3CC[C@@]4(C)[C@@H](CC[C@@H]5[C@@H]4CC[C@]4(C)[C@@H]6[C@H](C[C@@H]54)O[C@]4(CC[C@@H](C)CO4)[C@H]6C)C3)OC(CO)C(OC3OC(CO)C(O)C(OC4OCC(O)C(O)C4O)C3OC3OCC(O)C(O)C3O)C2O)C(O)C(O)C1O (some centres not stated) ?
RESULT: class 1

QUERY: Recorded call for CCCCCCCCCC(=O)CC(=O)c1c(O)cccc1O ?
RESULT: class 0

QUERY: Recorded call for Cc1ccc(N2CCc3c(C)c(C#N)c4nc5ccccc5n4c32)cc1 ?
RESULT: class 0

====

Kindly supply the reported GI50 values for the records listed here.
- Tested on: UACC-62
- procedure summary: NCI tumour cell line growth inhibition, 48 h
Calls of active or inactive are those of the source. Rule as the data show it: active = GI50 up to about 1.1 µM and inactive = higher.

QUERY: Record lookup: for UACC-62, what GI50 belongs to CN(C)CC1CCCCCCCCCCC1=O (stereo unspecified) ?
RESULT: > 100 µM (inactive)

QUERY: Record lookup: for UACC-62, what GI50 belongs to NC(=O)NC(=O)Nc1ccc(Br)cc1 ?
RESULT: 2.92 µM (inactive)

QUERY: Record lookup: for UACC-62, what GI50 belongs to O=C1O[C@@H](c2ccc3c(c2)OCO3)C2C(=O)O[C@@H](c3ccc4c(c3)OCO4)C12 (stereo partly specified) ?
RESULT: > 100 µM (inactive)

QUERY: Record lookup: for UACC-62, what GI50 belongs to CCOc1ccc(/C=C2\NC(=S)N(/C=C3\C(=O)Oc4ccccc4C3=O)C2=O)cc1 ?
RESULT: 17.5 µM (inactive)

QUERY: Record lookup: for UACC-62, what GI50 belongs to CCOP(=O)(OCC)/C(C#N)=C/c1coc2cc(C)cc(C)c2c1=O ?
RESULT: 67 µM (inactive)

QUERY: Record lookup: for UACC-62, what GI50 belongs to NCCSCCc1ccccc1 ?
RESULT: > 100 µM (inactive)

QUERY: Record lookup: for UACC-62, what GI50 belongs to Cc1ccc(C)c(N2C(=O)C(=O)C(c3nc4ccccc4s3)/C(=N/N)C2=O)c1 (stereo unspecified) ?
RESULT: > 100 µM (inactive)

QUERY: Record lookup: for UACC-62, what GI50 belongs to Nc1ncc2c(n1)-c1ccccc1OC2NC1CC1 (stereo unspecified) ?
RESULT: > 100 µM (inactive)

QUERY: Record lookup: for UACC-62, what GI50 belongs to Nc1nn2c(C(Br)Br)cc(C(Br)Br)nc2c1[N+](=O)[O-] ?
RESULT: 1.81 µM (inactive)

QUERY: Record lookup: for UACC-62, what GI50 belongs to CCc1cccc2c3c([nH]c12)-c1ccccc1NC(=O)C3 ?
RESULT: 65.9 µM (inactive)

QUERY: Record lookup: for UACC-62, what GI50 belongs to O=[N+]([O-])C(/C(Cl)=C(\Cl)Br)=C(/Cl)SCc1ccccc1 ?
RESULT: 3.2 µM (inactive)

QUERY: Record lookup: for UACC-62, what GI50 belongs to CN1COCN/C1=N/C#N ?
RESULT: > 100 µM (inactive)

QUERY: Record lookup: for UACC-62, what GI50 belongs to CCOC(=O)CN(CC)C(=O)NC12CC3CC(CC(C3)C1)C2 ?
RESULT: 116 µM (inactive)

QUERY: Record lookup: for UACC-62, what GI50 belongs to Cc1ccc(N2CCc3c(C)c(C#N)c4nc5ccccc5n4c32)cc1 ?
RESULT: 27 µM (inactive)

QUERY: Record lookup: for UACC-62, what GI50 belongs to O=C1C(c2ccccc2)=C(c2ccccc2)C(c2ccccc2)/C1=C1\C(=O)C(c2ccccc2)=C(c2ccccc2)C1c1ccccc1 (stereo unspecified) ?
RESULT: > 100 µM (inactive)

QUERY: Record lookup: for UACC-62, what GI50 belongs to Nc1c(/C=C/c2cc3cc(C4=NCCN4)ccc3o2)[nH]c2cc(C3=NCCN3)ccc12 ?
RESULT: 38 µM (inactive)

QUERY: Record lookup: for UACC-62, what GI50 belongs to O=C1C=C(c2c(O)ccc3ccccc23)c2ccccc2C1=O ?
RESULT: 2.35 µM (inactive)

QUERY: Record lookup: for UACC-62, what GI50 belongs to CCCCCCCCCC(=O)CC(=O)c1c(O)cccc1O ?
RESULT: 33.4 µM (inactive)

QUERY: Record lookup: for UACC-62, what GI50 belongs to CNC(=O)N(C1=NCC(C)S1)c1ccc(C)c(C)c1 (stereo unspecified) ?
RESULT: 3.56 µM (inactive)

QUERY: Record lookup: for UACC-62, what GI50 belongs to CC(=O)OCCOCNC(=S)N/N=C/c1ccc([N+](=O)[O-])s1 ?
RESULT: 24.3 µM (inactive)

QUERY: Record lookup: for UACC-62, what GI50 belongs to C=C(C)C1CC2(C)C(C)CC(OC(=O)/C(C)=C\C)CC2C(OC(=O)/C(C)=C\C)C1O (stereo unspecified) ?
RESULT: 84.5 µM (inactive)

QUERY: Record lookup: for UACC-62, what GI50 belongs to COc1nc2c(nc(N)n2C2OC(CO)C(O)C(O)C2O)c(=O)n1C (stereo unspecified) ?
RESULT: > 100 µM (inactive)

QUERY: Record lookup: for UACC-62, what GI50 belongs to C=C[C@@]1(O)CCCC[C@@H]1CC(Sc1ccccc1)Sc1ccccc1 ?
RESULT: 8.59 µM (inactive)

QUERY: Record lookup: for UACC-62, what GI50 belongs to C[C@H]1[C@H](C)N(Cc2ccccc2)P(=O)(C(O)/C=C/c2ccccc2)N1Cc1ccccc1 (stereo partly specified) ?
RESULT: 4.18 µM (inactive)

QUERY: Record lookup: for UACC-62, what GI50 belongs to c1ccc(-c2csc3ncn4cnnc4c23)cc1 ?
RESULT: 53.3 µM (inactive)

QUERY: Record lookup: for UACC-62, what GI50 belongs to CC1CCCCN1CC(=O)c1ccc2c(c1)Sc1ccccc1O2 (stereo unspecified) ?
RESULT: 13.3 µM (inactive)

QUERY: Record lookup: for UACC-62, what GI50 belongs to O=C(Nc1ccc([As](=O)(O)O)cc1)Nc1cccc(Cl)c1Cl ?
RESULT: > 100 µM (inactive)

QUERY: Record lookup: for UACC-62, what GI50 belongs to CC(C)(C)OC/C=C(/CO)[C@@H]1C=C[C@H](O)C1 ?
RESULT: > 100 µM (inactive)

QUERY: Record lookup: for UACC-62, what GI50 belongs to CC(C)(C)OC(=O)NCCCCC(NC(=O)OCc1ccccc1)C(N)=O (stereo unspecified) ?
RESULT: > 100 µM (inactive)

QUERY: Record lookup: for UACC-62, what GI50 belongs to O=C1c2c(Br)sc(Br)c2[C@@H](O)[C@H]1O ?
RESULT: 16.7 µM (inactive)

QUERY: Record lookup: for UACC-62, what GI50 belongs to O=c1[nH]c(=O)n(C2CC(O)C(CO)O2)c2nc3ccc4cc5ccccc5cc4c3nc12 (stereo unspecified) ?
RESULT: > 100 µM (inactive)

====

- Tested on: TK-10
- procedure summary: NCI tumour cell line growth inhibition, 48 h
Activity calls are given as the source filed them. Cut-off read from the data, not from the text of the source: active = GI50 up to about 1.1 µM and inactive = higher.
Can you answer with just one of these options? YES for active, NO for inactive

QUERY: Recorded call for O=C1C[S+]([O-])c2ccccc2N1 (stereo not given) ?
RESULT: NO

QUERY: Recorded call for COc1ccc(C2(O)C(S(=O)(=O)c3ccc(C)cc3)=Cc3ccc(OC)cc32)cc1 (stereo not given) ?
RESULT: NO

QUERY: Recorded call for COc1ccc2cc1Oc1ccc(cc1)CC1c3cc(OC)c(cc3CCN1C)Oc1c(OC)c(OC)cc3c1C(C2)N(C)CC3 (stereo not given) ?
RESULT: NO

QUERY: Recorded call for NC12CC3C4CC5(N)CC3C(C1)C(C5)C4C2 ?
RESULT: NO

QUERY: Recorded call for C[C@H]1O[C@@H](O[C@H]2[C@@H](O)C[C@H](O[C@H]3[C@@H](O)C[C@H](O[C@H]4CC[C@@]5(C)[C@H](CC[C@@H]6[C@@H]5CC[C@]5(C)[C@@H](C7=CC(=O)OC7)CC[C@]65O)C4)O[C@@H]3C)O[C@@H]2C)C[C@H](O)[C@@H]1O ?
RESULT: YES

QUERY: Recorded call for O=C1C=C(c2c(O)ccc3ccccc23)c2ccccc2C1=O ?
RESULT: NO

QUERY: Recorded call for CC1=CC2C(C=C1)S(=O)(=O)N1CC21c1ccccc1 (stereo not given) ?
RESULT: NO

QUERY: Recorded call for COP(=O)(/C=C/C(NC(=O)C(Cl)(Cl)Cl)c1ccccc1)OC (stereo not given) ?
RESULT: NO

QUERY: Recorded call for CC(C)(C)CC(C)(C)c1cc2c(O)c(c1)Cc1cc(C(C)(C)CC(C)(C)C)cc(c1O)Cc1cc(C(C)(C)CC(C)(C)C)cc(c1O)Cc1cc(C(C)(C)CC(C)(C)C)cc(c1O)Cc1cc(C(C)(C)CC(C)(C)C)cc(c1O)C2 ?
RESULT: NO

QUERY: Recorded call for CC1CCC2C(C)C(OC(=O)CCC(=O)O)OC3OC4(C)CCC1C32OO4 (stereo not given) ?
RESULT: NO

QUERY: Recorded call for c1ccc(/N=C2\SC(=NNc3ccccc3)S\C2=N/c2ccccc2)cc1 ?
RESULT: NO

QUERY: Recorded call for Cc1cc(OC(=O)NCn2cc(-c3ccccc3)nn2)ccc1Cl ?
RESULT: NO

QUERY: Recorded call for NC(=O)c1cn(C2OC(CO)C(O)C2O)c2nc[n+]([O-])c(N)c12 (stereo not given) ?
RESULT: YES

QUERY: Recorded call for CC[P+]1(CC)CCCC1 ?
RESULT: NO

QUERY: Recorded call for CCCCCCCCCCCCOC(=S)NCCCC ?
RESULT: NO
